system-tested: AXL (human catalytic domain) (Homo sapiens, UniProt P30530)
Construct: purchased Upstate Ltd. 14-512
Sequence (P30530 473-894): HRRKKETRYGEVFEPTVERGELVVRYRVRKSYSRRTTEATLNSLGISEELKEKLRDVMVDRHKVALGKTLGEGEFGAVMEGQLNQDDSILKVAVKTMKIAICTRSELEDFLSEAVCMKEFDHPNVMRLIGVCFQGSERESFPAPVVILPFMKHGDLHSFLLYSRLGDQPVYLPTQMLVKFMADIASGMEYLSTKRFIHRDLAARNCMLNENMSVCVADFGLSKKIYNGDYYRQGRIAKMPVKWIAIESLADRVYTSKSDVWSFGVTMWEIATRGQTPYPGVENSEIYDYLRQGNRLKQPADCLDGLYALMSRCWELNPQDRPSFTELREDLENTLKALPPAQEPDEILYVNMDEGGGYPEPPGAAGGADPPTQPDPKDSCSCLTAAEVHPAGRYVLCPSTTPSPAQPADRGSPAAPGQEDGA
assay: AXL (human catalytic domain) Enzyme Activity Assay (IMAP fluorescence polarisation)
Type: biochemical
condition-details: first data set; recombinant AXL isoform 1 aa473-894, 150 μM ATP
measured-endpoint: IC50

Answered cases to consult:
[
  {
    "compound-structure": "c1cc(-c2ccc3c(c2)OCO3)n2nc(Nc3ccc(OCCN4CCCCC4)cc3)nc2c1",
    "experimental-value": "< 1000 nM"
  },
  {
    "compound-structure": "CC(C)CNc1cccc2nc(NC(=O)C3CC3)nn12",
    "experimental-value": "1000 to 10000 nM"
  }
]

Can you give me IC50 for all of these, one by one?
1. CCNCCOc1ccc(Nc2nc3cccc(-c4ccc5c(c4)OCCO5)n3n2)cc1
2. CC(C)CCn1cc(-c2cccc3nc(NC(=O)C4CC4)nn23)cn1
3. COc1ccc(-c2cccc3nc(Nc4ccc(OCCNCc5ccncc5)cc4)nn23)cc1

**A:**
1. < 1000 nM
2. 1000 to 10000 nM
3. < 1000 nM

----------
system-tested: AXL (human catalytic domain) (Homo sapiens, UniProt P30530)
Construct: purchased Upstate Ltd. 14-512
assay: AXL (human catalytic domain) Enzyme Activity Assay (IMAP fluorescence polarisation)
Format: biochemical
condition-details: further data set (WW-001 through WW-169, XX-001 through XX-469, YY-001 through YY-016, ZZ-001 through ZZ-003); 150 μM ATP
pIC50: −log10 of the molar value.
Assignment: determine reported pIC50 for the given molecules.

[
  {
    "compound-structure": "CCCCNC(=O)c1cccc(-c2cccc3nc(Nc4ccc(OCCN5CCCC5)cc4)nn23)c1",
    "experimental-value": "5.00 to 6.00"
  },
  {
    "compound-structure": "C#CCOc1ccc(-c2cccc3nc(NC(=O)C4CC4)nn23)cc1",
    "experimental-value": "5.00 to 6.00"
  },
  {
    "compound-structure": "Cc1ccc(-c2cccc3nc(NC(=O)C4CC4)nn23)s1",
    "experimental-value": "5.00 to 6.00"
  },
  {
    "compound-structure": "c1cc(-c2cncnc2)cc(-c2cccc3nc(Nc4ccc(OCCN5CCCC5)cc4)nn23)c1",
    "experimental-value": "6.00 to 7.00"
  },
  {
    "compound-structure": "O=C(c1cccc(-c2cccc3nc(Nc4ccc(OCCN5CCCC5)cc4)nn23)c1)c1ccc2c(c1)OCO2",
    "experimental-value": "6.00 to 7.00"
  },
  {
    "compound-structure": "CCN(CC)CCOc1cccc(Nc2nc3cccc(-c4ccc5c(c4)OCCO5)n3n2)c1",
    "experimental-value": "≥ 7.00"
  },
  {
    "compound-structure": "COc1ccc(-c2cccc3nc(Nc4ccc(OCCNc5ccncc5)cc4)nn23)cc1",
    "experimental-value": "6.00 to 7.00"
  },
  {
    "compound-structure": "CNCCOc1cccc(Nc2nc3cccc(-c4ccc5c(c4)OCCO5)n3n2)c1",
    "experimental-value": "≥ 7.00"
  },
  {
    "compound-structure": "Cc1ccc(CCn2cc(-c3cccc4nc(Nc5ccc(OCCN6CCCC6)cc5)nn34)cn2)cc1",
    "experimental-value": "6.00 to 7.00"
  },
  {
    "compound-structure": "CNCCOc1cccc(Nc2nc3cccc(-c4ccc5occc5c4)n3n2)c1",
    "experimental-value": "≥ 7.00"
  }
]

Now for the molecule whose pIC50 we want.
So for O=C(Nc1ccc(C(F)(F)F)cc1)Nc1cccc(-c2cccc3nc(Nc4ccc(OCCN5CCCC5)cc4)nn23)c1 , the logged pIC50 turned out to be 5.00 to 6.00

The measurements presented in this section are drawn from patent US8431596B2.
